# procedure_text: Cell viability by CellTiter-Glo 2.0 (intracellular ATP) in HepG2.117 cells
# Format: cell-based
# condition_summary: human, CellTiter-Glo 2.0, 3 days incubation
quantity_kind: CC50 at 3 days

>  <substance_smiles>
CNC(=O)c1ccc(-n2c(-n3nc(C(=O)N(C)C)cc3C)nc3c(c2=O)C[C@@H](C)N(C(=O)c2ccc(Br)c(C(F)(F)F)c2)C3)cc1

>  <measured_result>
> 50 µM

$$$$
>  <substance_smiles>
CNC(=O)c1ccc(-n2c(-n3nc(C(F)(F)F)cc3C)nc3c(c2=O)C[C@@H](C)N(C(=O)c2ccc(Br)c(C(F)(F)F)c2)C3)cc1

>  <measured_result>
> 0.5 µM

$$$$
>  <substance_smiles>
[2H]c1c(C)nn(-c2nc3c(c(=O)n2-c2ccc(C(=O)NC)cc2)C[C@@H](C)N(C(=O)c2ccc(Br)c(C(F)(F)F)c2)C3)c1C

>  <measured_result>
> 50 µM

$$$$
>  <substance_smiles>
CNC(=O)c1ccc(-n2c(-n3nc(C(C)C)cc3C)nc3c(c2=O)C[C@@H](C)N(C(=O)c2ccc(Br)c(C(F)(F)F)c2)C3)cc1

>  <measured_result>
> 50 µM

$$$$
>  <substance_smiles>
CNC(=O)c1ccc(-n2c(-n3cc4c(n3)CCCC4)nc3c(c2=O)C[C@@H](C)N(C(=O)c2ccc(Br)c(C(F)(F)F)c2)C3)cc1

>  <measured_result>
> 50 µM

$$$$
>  <substance_smiles>
CNC(=O)c1ccc(-n2c(-n3nc(C4CC4)cc3C)nc3c(c2=O)C[C@@H](C)N(C(=O)c2ccc(Br)c(C(F)(F)F)c2)C3)cc1

>  <measured_result>
> 50 µM

$$$$
>  <substance_smiles>
CNC(=O)c1ccc(-n2c(-n3nc(C)cc3C#N)nc3c(c2=O)C[C@@H](C)N(C(=O)c2ccc(Br)c(C(F)(F)F)c2)C3)cc1

>  <measured_result>
29.2 µM

$$$$
>  <substance_smiles>
CCc1cc(CC)n(-c2nc3c(c(=O)n2-c2ccc(C(=O)NC)cc2)C[C@@H](C)N(C(=O)c2ccc(Br)c(C(F)(F)F)c2)C3)n1

>  <measured_result>
> 50 µM

$$$$
>  <substance_smiles>
CNC(=O)c1ccc(-n2c(-n3nc(C)c(C)c3C)nc3c(c2=O)C[C@@H](C)N(C(=O)c2ccc(Br)c(C(F)(F)F)c2)C3)cc1

>  <measured_result>
> 5 µM

$$$$
>  <substance_smiles>
CNC(=O)c1ccc(-n2c(-n3nc(C#N)cc3C)nc3c(c2=O)C[C@@H](C)N(C(=O)c2ccc(Br)c(C(F)(F)F)c2)C3)cc1

>  <measured_result>
> 50 µM

$$$$
>  <substance_smiles>
CNC(=O)c1ccc(-n2c(-n3nc(C(C)(C)C)cc3C)nc3c(c2=O)C[C@@H](C)N(C(=O)c2ccc(Br)c(C(F)(F)F)c2)C3)cc1

>  <measured_result>
41.8 µM

$$$$
>  <substance_smiles>
CNC(=O)c1ccc(-n2c(-n3nc(C)cc3C(C)C)nc3c(c2=O)C[C@@H](C)N(C(=O)c2ccc(Br)c(C(F)(F)F)c2)C3)cc1

>  <measured_result>
> 50 µM

$$$$

* * *

# System: HBV
# procedure_text: HBV-DNA antiviral assay using HepG2.117 cells (intracellular HBV DNA by qPCR)
# Assay type: cell-based, genotype D HBV
# condition_summary: Hepatitis B virus, 72 h, HBV DNA inhibition, 3 days incubation
quantity_kind: EC50

>  <compound>
CNC(=O)c1ccc(-n2c(-n3cc4c(n3)CCCC4)nc3c(c2=O)C[C@@H](C)N(C(=O)c2ccc(Br)c(C(F)(F)F)c2)C3)cc1 [Compound 10]

>  <assay_target>
HBV

>  <quantity_kind>
EC50

>  <measured_result>
≤ 50 nM

$$$$
>  <compound>
CNC(=O)c1ccc(-n2c(-n3nc(C)cc3C(C)C)nc3c(c2=O)C[C@@H](C)N(C(=O)c2ccc(Br)c(C(F)(F)F)c2)C3)cc1 [Compound 8]

>  <assay_target>
HBV

>  <quantity_kind>
EC50

>  <measured_result>
≤ 50 nM

$$$$
>  <compound>
CNC(=O)c1ccc(-n2c(-n3nc(C#N)cc3C)nc3c(c2=O)C[C@@H](C)N(C(=O)c2ccc(Br)c(C(F)(F)F)c2)C3)cc1 [Compound 1]

>  <assay_target>
HBV

>  <quantity_kind>
EC50

>  <measured_result>
≤ 50 nM

$$$$
>  <compound>
CNC(=O)c1ccc(-n2c(-n3nc(C4CC4)cc3C)nc3c(c2=O)C[C@@H](C)N(C(=O)c2ccc(Br)c(C(F)(F)F)c2)C3)cc1 [Compound 3]

>  <assay_target>
HBV

>  <quantity_kind>
EC50

>  <measured_result>
≤ 50 nM

$$$$
>  <compound>
CCc1cc(CC)n(-c2nc3c(c(=O)n2-c2ccc(C(=O)NC)cc2)C[C@@H](C)N(C(=O)c2ccc(Br)c(C(F)(F)F)c2)C3)n1 [Compound 4]

>  <assay_target>
HBV

>  <quantity_kind>
EC50

>  <measured_result>
≤ 50 nM

$$$$
>  <compound>
CNC(=O)c1ccc(-n2c(-n3nc(C(C)C)cc3C)nc3c(c2=O)C[C@@H](C)N(C(=O)c2ccc(Br)c(C(F)(F)F)c2)C3)cc1 [Compound 7]

>  <assay_target>
HBV

>  <quantity_kind>
EC50

>  <measured_result>
≤ 50 nM

$$$$
>  <compound>
CNC(=O)c1ccc(-n2c(-n3nc(C)cc3C#N)nc3c(c2=O)C[C@@H](C)N(C(=O)c2ccc(Br)c(C(F)(F)F)c2)C3)cc1 [Compound 2]

>  <assay_target>
HBV

>  <quantity_kind>
EC50

>  <measured_result>
≤ 50 nM

$$$$
>  <compound>
[2H]c1c(C)nn(-c2nc3c(c(=O)n2-c2ccc(C(=O)NC)cc2)C[C@@H](C)N(C(=O)c2ccc(Br)c(C(F)(F)F)c2)C3)c1C [Compound 12]

>  <assay_target>
HBV

>  <quantity_kind>
EC50

>  <measured_result>
≤ 50 nM

$$$$
>  <compound>
CNC(=O)c1ccc(-n2c(-n3nc(C(=O)N(C)C)cc3C)nc3c(c2=O)C[C@@H](C)N(C(=O)c2ccc(Br)c(C(F)(F)F)c2)C3)cc1 [Compound 11]

>  <assay_target>
HBV

>  <quantity_kind>
EC50

>  <measured_result>
50 to 500 nM

$$$$
>  <compound>
CNC(=O)c1ccc(-n2c(-n3nc(C(F)(F)F)cc3C)nc3c(c2=O)C[C@@H](C)N(C(=O)c2ccc(Br)c(C(F)(F)F)c2)C3)cc1 [Compound 5]

>  <assay_target>
HBV

>  <quantity_kind>
EC50

>  <measured_result>
≤ 50 nM

$$$$
>  <compound>
CNC(=O)c1ccc(-n2c(-n3nc(C(C)(C)C)cc3C)nc3c(c2=O)C[C@@H](C)N(C(=O)c2ccc(Br)c(C(F)(F)F)c2)C3)cc1 [Compound 6]

>  <assay_target>
HBV

>  <quantity_kind>
EC50

>  <measured_result>
≤ 50 nM

$$$$
>  <compound>
CNC(=O)c1ccc(-n2c(-n3nc(C)c(C)c3C)nc3c(c2=O)C[C@@H](C)N(C(=O)c2ccc(Br)c(C(F)(F)F)c2)C3)cc1 [Compound 9]

>  <assay_target>
HBV

>  <quantity_kind>
EC50

>  <measured_result>
50 to 500 nM

$$$$
